# target_entity: T1, IL-2R on human primary T cells (human, UniProt P01589 22-272; P14784 27-551; P31785 23-369)
# T1 sequence (looked up) 1: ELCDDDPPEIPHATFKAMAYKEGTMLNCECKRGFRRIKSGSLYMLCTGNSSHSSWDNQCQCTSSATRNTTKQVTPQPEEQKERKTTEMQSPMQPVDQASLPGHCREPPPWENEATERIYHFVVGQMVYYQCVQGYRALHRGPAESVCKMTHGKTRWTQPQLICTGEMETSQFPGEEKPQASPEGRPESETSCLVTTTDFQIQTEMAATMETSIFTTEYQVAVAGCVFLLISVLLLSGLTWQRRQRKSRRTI
# T1 sequence (looked up) 2: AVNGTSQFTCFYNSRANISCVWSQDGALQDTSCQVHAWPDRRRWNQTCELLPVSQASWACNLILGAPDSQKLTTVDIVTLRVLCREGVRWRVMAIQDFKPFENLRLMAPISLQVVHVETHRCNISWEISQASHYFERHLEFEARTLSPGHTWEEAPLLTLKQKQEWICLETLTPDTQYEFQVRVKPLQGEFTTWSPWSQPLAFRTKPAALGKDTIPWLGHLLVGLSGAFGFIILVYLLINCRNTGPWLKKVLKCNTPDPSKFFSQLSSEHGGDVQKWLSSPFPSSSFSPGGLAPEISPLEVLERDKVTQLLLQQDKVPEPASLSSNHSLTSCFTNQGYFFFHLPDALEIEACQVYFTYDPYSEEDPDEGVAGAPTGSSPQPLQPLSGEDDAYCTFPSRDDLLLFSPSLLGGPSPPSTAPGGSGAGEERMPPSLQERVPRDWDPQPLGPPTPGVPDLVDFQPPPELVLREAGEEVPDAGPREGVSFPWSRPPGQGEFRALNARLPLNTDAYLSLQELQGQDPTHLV
# T1 sequence (looked up) 3: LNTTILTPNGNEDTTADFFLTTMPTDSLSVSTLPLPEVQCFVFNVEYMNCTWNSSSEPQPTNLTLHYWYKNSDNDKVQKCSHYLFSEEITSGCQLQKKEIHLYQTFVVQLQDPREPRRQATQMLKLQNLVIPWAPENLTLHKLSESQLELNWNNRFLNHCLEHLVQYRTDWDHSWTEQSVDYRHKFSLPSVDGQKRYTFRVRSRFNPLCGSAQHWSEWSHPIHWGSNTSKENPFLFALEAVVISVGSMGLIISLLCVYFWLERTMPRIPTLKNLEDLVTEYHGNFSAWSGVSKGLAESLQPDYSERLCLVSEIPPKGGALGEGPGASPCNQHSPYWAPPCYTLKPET
# assay_overview: cell-based or functional assay
Please go through the items and note down their CD8 naïve EC50 (nM), STAT5 phosphorylation.
Report the figure along with its unit, number first.

Examples from the recorded data:
SEQ ID NO 32 (ligand) APTSSSTKKTQLQLEHLLLDLQMILNGINNYKNPKLTRMLTFKFYMPKKATELKHLQCLEEELKPLEEALNLAQSKNFHLRPRDLISDINVIVLELKGSETTFMCEYADETATIVEFLNRWITFSQSIISTLT :: 10000 nM
SEQ ID NO 33 (ligand) APTSSSTKKTQLQLEHLLLDLQMILNGINNYKNPKLTRMLTFKFYMPKKATELKHLQCLEEELKPLEEVLNLAPSKNFHLRPRDLISDINVIVLELKGSETTFMCEYADETATIVEFLNRWITFSQSIISTLT :: 1000 nM
SEQ ID NO 23 (ligand) APTSSSTKKTQLQLEHLLLDLQMILNGINNHKNPKLTRMLTFKFYMPKKATELKHLQCLEEELKPLEEVLRLAQSKNFHLRPRDLISDINVIVLELKGSETTFMCEYADETATIVEFLNRWITFSQSIISTLT :: 1880 nM

input: // CD8 naïve EC50 (nM), STAT5 phosphorylation lookup, key: SEQ ID NO 13 (ligand) APTSSSTKKTQLQLEHLLLDLQMILNGINNHKNPRLTRMLTFKFYMPKKATELKHLQCLEEELKPLEEALRLAPSKNFHLRPRDLISDINVIVLELKGSETTFMCEYADETATIVEFLNRWITFSQSIISTLT
output: 8410 nM
